Molecular target: UniProtKB P42866
Assay: [35S]-GTPγS functional assay, MOR-CHO membranes
Details: relative to 3 μM DAMGO
resultType: MOR [35S]-GTPγS assay % Emax of DAMGO

Give the measured MOR [35S]-GTPγS assay % Emax of DAMGO of O=C(N[C@H]1CC[C@@]2(O)[C@H]3Cc4ccc(O)c5c4[C@@]2(CCN3CC2CC2)[C@H]1O5)c1cccc2[nH]ccc12 .
28.90 ±0.95%

* * *

Target: mouse DOR (Mus musculus)
Sequence (P32300 whole entry): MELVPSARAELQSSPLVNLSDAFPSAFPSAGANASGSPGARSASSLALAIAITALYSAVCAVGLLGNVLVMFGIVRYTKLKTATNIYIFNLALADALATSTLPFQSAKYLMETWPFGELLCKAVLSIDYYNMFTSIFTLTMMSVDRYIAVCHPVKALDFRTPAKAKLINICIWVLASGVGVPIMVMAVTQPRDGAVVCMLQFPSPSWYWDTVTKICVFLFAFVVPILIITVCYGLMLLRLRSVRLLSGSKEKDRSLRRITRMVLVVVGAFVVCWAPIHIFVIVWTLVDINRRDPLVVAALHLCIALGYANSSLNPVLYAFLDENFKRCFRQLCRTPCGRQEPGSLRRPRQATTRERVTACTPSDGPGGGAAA
Below: a set of entries, each annotated with reported Ki.
# answer = value followed by unit

Take a look at these entries with their results.
O=C(CCCc1c[nH]c2ccccc12)N[C@@H]1CC[C@@]2(O)[C@H]3Cc4ccc(O)c5c4[C@@]2(CCN3CC2CC2)[C@H]1O5 [Compound 9] : 25.3 nM
O=C(CCc1c[nH]c2ccccc12)N[C@H]1CC[C@@]2(O)[C@H]3Cc4ccc(O)c5c4[C@@]2(CCN3CC2CC2)[C@H]1O5 [Compound 17] : 25.1 nM
O=C(N[C@H]1CC[C@@]2(O)[C@H]3Cc4ccc(O)c5c4[C@@]2(CCN3CC2CC2)[C@H]1O5)c1ccc2cc[nH]c2c1 [Compound 14] : 12.8 nM

Now for another entry.
So what's the measured Ki for this one? O=C(N[C@@H]1CC[C@@]2(O)[C@H]3Cc4ccc(O)c5c4[C@@]2(CCN3CC2CC2)[C@H]1O5)c1ccc2cc[nH]c2c1 [Compound 5]
6.23 nM

* * *

Target: mouse MOR (Mus musculus)
Sequence (P42866 whole entry): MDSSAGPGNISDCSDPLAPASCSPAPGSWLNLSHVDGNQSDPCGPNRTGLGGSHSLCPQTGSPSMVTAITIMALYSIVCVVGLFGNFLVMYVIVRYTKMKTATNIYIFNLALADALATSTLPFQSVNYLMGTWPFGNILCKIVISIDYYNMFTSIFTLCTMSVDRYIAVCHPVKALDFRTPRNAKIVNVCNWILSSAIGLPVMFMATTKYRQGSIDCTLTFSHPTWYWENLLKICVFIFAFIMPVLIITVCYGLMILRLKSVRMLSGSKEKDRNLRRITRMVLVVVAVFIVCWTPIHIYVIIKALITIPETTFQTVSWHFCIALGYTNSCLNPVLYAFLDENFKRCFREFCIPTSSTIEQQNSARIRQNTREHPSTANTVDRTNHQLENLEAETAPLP
Assay: [35S]-GTPγS functional assay, MOR-CHO membranes
Each record here notes measured EC50.
Answer with the number, then the unit.

O=C(N[C@H]1CC[C@@]2(O)[C@H]3Cc4ccc(O)c5c4[C@@]2(CCN3CC2CC2)[C@H]1O5)c1ccc2[nH]ccc2c1 [Compound 13] : 1.55 nM
O=C(N[C@@H]1CC[C@@]2(O)[C@H]3Cc4ccc(O)c5c4[C@@]2(CCN3CC2CC2)[C@H]1O5)c1ccc2cc[nH]c2c1 [Compound 5] : 0.19 nM
O=C(N[C@@H]1CC[C@@]2(O)[C@H]3Cc4ccc(O)c5c4[C@@]2(CCN3CC2CC2)[C@H]1O5)c1cc2ccccc2[nH]1 [Compound 1] : 0.21 nM

Okay, next one:
State the recorded EC50 for this entry: O=C(N[C@@H]1CC[C@@]2(O)[C@H]3Cc4ccc(O)c5c4[C@@]2(CCN3CC2CC2)[C@H]1O5)c1ccc2[nH]ccc2c1 [Compound 4]
2.98 nM

* * *

Target: UniProtKB P42866
Entries and their Ki
Number in nM, nothing else.

Example cases with answers are listed next.
O=C(N[C@@H]1CC[C@@]2(O)[C@H]3Cc4ccc(O)c5c4[C@@]2(CCN3CC2CC2)[C@H]1O5)c1c[nH]c2ccccc12 [Compound 2] : 0.19
O=C(Cc1c[nH]c2ccccc12)N[C@@H]1CC[C@@]2(O)[C@H]3Cc4ccc(O)c5c4[C@@]2(CCN3CC2CC2)[C@H]1O5 [Compound 7] : 0.24

# context switch: different compound, same Ki
Which Ki reading was recorded for the compound O=C(CCc1c[nH]c2ccccc12)N[C@@H]1CC[C@@]2(O)[C@H]3Cc4ccc(O)c5c4[C@@]2(CCN3CC2CC2)[C@H]1O5 [Compound 8] ?
0.17

* * *

Biological target: mouse DOR (Mus musculus)
// classify: if (Ki < 9 nM) TRUE else FALSE

Solved cases (4 shown):
O=C(CCc1c[nH]c2ccccc12)N[C@@H]1CC[C@@]2(O)[C@H]3Cc4ccc(O)c5c4[C@@]2(CCN3CC2CC2)[C@H]1O5 : FALSE
O=C(N[C@@H]1CC[C@@]2(O)[C@H]3Cc4ccc(O)c5c4[C@@]2(CCN3CC2CC2)[C@H]1O5)c1c[nH]c2ccccc12 : TRUE
O=C(Cc1c[nH]c2ccccc12)N[C@@H]1CC[C@@]2(O)[C@H]3Cc4ccc(O)c5c4[C@@]2(CCN3CC2CC2)[C@H]1O5 : FALSE
O=C(N[C@H]1CC[C@@]2(O)[C@H]3Cc4ccc(O)c5c4[C@@]2(CCN3CC2CC2)[C@H]1O5)c1ccc2[nH]ccc2c1 : FALSE

Find out if reported Ki for O=C(N[C@@H]1CC[C@@]2(O)[C@H]3Cc4ccc(O)c5c4[C@@]2(CCN3CC2CC2)[C@H]1O5)c1cccc2[nH]ccc12 is less than 9 nM
FALSE

Report whether reported Ki is lower than 9 nM (strictly) for O=C(N[C@@H]1CC[C@@]2(O)[C@H]3Cc4ccc(O)c5c4[C@@]2(CCN3CC2CC2)[C@H]1O5)c1ccc2[nH]ccc2c1
FALSE
